SYSTEM NAME: K507A-CHC^ankle (human, UniProt Q00610 358-574, K507A)
Sequence (Q00610 358-574 K507A): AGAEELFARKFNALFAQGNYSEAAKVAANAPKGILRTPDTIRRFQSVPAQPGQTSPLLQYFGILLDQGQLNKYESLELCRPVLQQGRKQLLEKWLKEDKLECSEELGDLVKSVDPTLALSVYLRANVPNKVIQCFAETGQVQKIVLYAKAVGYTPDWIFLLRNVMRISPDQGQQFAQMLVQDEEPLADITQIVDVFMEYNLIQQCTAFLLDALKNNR
ASSAY DETAILS: FP
Positions of bridges follow the written chain, without caps; N, C: chain ends. Non-standard residues stand in square brackets, D forms with d. Primed or numbered codes have the meaning given here. No end group written: not given here. FAM″ = 5(6)-carboxyfluorescein label; S5 = C=CCCC[C@](C)(N)C(=O)O
OUTCOME MEASURE: Kd (µM)
Write the value in µM as a bare number.

Data request: Need Kd, item {FAM}-KESALRKLELLLEFDPLFRDS (designed binder, staple (positions not given here); not fully specified (residues 8, 12, bridges); also: (S)-2-(4-pentenyl)alanine at 557 and 561 not placed in the given letters) [Opt SP TACC3]
Data returned: 0.19

Data request: Could you tell me which Kd is on file for {FAM″}-KESALRKQELY[S5]KFD[S5]LLRDS-NH2 (staple 12-16) [SP5E] ?
Data returned: 146
